# System: Chloramphenicol nitroreductase
# ASSAY: Substrate activity at recombinant Haemophilus influenzae Chloramphenicol nitroreductase expressed in Escherichia coli assessed as Km measured at 30 sec interval for 30 mins in presence of NADPH at 50 degC by Michaelis-Menton plot analysis
# Format: ADME
MEASUREMENT_LABEL: Km at 0.5 h

>>> obs_value("O=C(N[C@H](CO)[C@H](O)c1ccc([N+](=O)[O-])cc1)C(Cl)Cl [CHLORAMPHENICOL]")
"191 µM"
